Taken from PubChem BioAssay (NCI).

Tested on: NCI-H322M lung
assay explanation: NCI-60 one-dose screen, 48 h (100 = growth as untreated, 0 = no growth, -100 = all killed)
condition set: 10 µM unless noted
The panel holds about 83,000 compounds, 20% with a hit somewhere; the sample as a whole holds those more often.
measurement label: growth (%)
Numbers only, in %.

Go through the items and report each one's growth.
1. O=C(Oc1c(Cl)c(Cl)c(Cl)c(Cl)c1Cl)C1CCCN1C(=O)OCc1ccccc1 (centres undefined)
2. COc1cc(/C=C/C(=O)c2c(C)nc3ccccc3c2C)ccc1OCCCOc1cc2c(cc1OC)C(=O)N1CCC[C@H]1C=N2
3. CN=C1C=C/C(=N/N=c2/ccn(O)cc2C)C=C1C
4. Cc1cc(C)cc(NC(=O)Cn2nncc2CN2C(=O)CSC2=O)c1
5. Cn1c(=O)c2c3c(oc2c2ccccc21)C(=O)c1ccccc1C3=O

39.9
-58.6
113
109
96.2

Go through the items and report each one's growth.
1. CC1=C(C(=O)Nc2ccc(F)cc2)C(c2ccc(Cl)cc2)C2=C(CC(C)(C)CC2=O)N1 (centres undefined)
2. O=C(Nc1ccc(Cl)c(C(F)(F)F)c1)c1ccc(Nc2ccc(Cl)nn2)cc1
3. COc1ccc2[nH]c(C(=O)OCc3ccc4c(Br)cc(Br)c(O)c4n3)cc2c1
4. COc1ccc(-c2nc3ccc(Cc4ccc5nc(-c6ccc(OC)cc6)[nH]c5c4)cc3[nH]2)cc1

1: 102; 2: 92.9; 3: 43.1; 4: 97.7

====

Tested on: HT29 colon
assay explanation: NCI-60 one-dose screen, 48 h
condition set: 10 µM unless noted
The panel holds about 83,000 compounds, 20% with a hit somewhere; the sample as a whole holds those more often. The source made the active and inactive calls. The calls were made as follows: active = growth percent below 10; inactive = the rest.
# valid calls are true (1) for active, false (0) for inactive; nothing else

Some solved entries appear below for comparison.
molecule: O=C(/C=C/c1cccc([N+](=O)[O-])c1)c1ccc(Nc2nc(N3CCCCC3)nc(N3CCCCC3)n2)cc1
system: HT29 colon
answer label: false (0)

molecule: CCCc1n(Cc2ccc3ccccc3n2)cc[n+]1Cc1ccc2ccccc2c1
system: HT29 colon
answer label: true (1)

molecule: c1ccc(C(Nc2ccccn2)(c2ccccc2)c2ccccc2)cc1
system: HT29 colon
answer label: false (0)

molecule: O=C(C=P(c1ccccc1)(c1ccccc1)c1ccccc1)CCl
system: HT29 colon
answer label: true (1)

molecule: F
system: HT29 colon
answer label: true (1)

molecule: CC(=O)N[C@@H](CCC(N)=O)C(=O)O
system: HT29 colon
answer label: false (0)

What classification did CC(C)CC(NC(=O)C(CCCN=C(N)N)NC(=O)OCc1ccccc1)C(=O)NC(CNC(=O)/C=C/c1ccccc1)C(C)C (stereo not given) end up with in this test?
false (0)

====

Assignment: determine reported growth for the given molecules.
Tested on: MALME-3M melanoma
assay explanation: NCI-60 one-dose screen, 48 h (100 = growth as untreated, 0 = no growth, -100 = all killed)
condition set: 10 µM unless noted
This is part of a sample that, as a whole, favours compounds with a hit. Of some 83,000 tested, about 20% had one in any assay.
Answers are plain numbers, in %.

Sample records with growth:
molecule: Cc1[nH]nc2ccc3nc(-c4ccc5[nH]ncc5c4)c4c(c3c12)CCCC4
result units: %
growth: 7.88

molecule: COc1ccc(-c2cn(-c3cccc(C(=O)/C=C/c4ccc(O)c(OC)c4)c3)c(=O)[nH]2)cc1
result units: %
growth: 72.5

molecule: CCCCc1n(Cc2ccc3ccccc3n2)cc[n+]1Cc1ccc2ccccc2n1
result units: %
growth: -2.99

molecule: COc1cc(-c2nc(-c3nc4cc(C(=O)c5ccccc5)ccc4[nH]3)cc3c2[nH]c2ccccc23)cc(OC)c1OC
result units: %
growth: 102

molecule: CCN(C)CCCOc1ccc(/C(=C(\C)Cc2cccc(OC)c2)c2ccc(OC(C)=O)cc2)cc1
result units: %
growth: 97.3

Go through the items and report each one's growth.
1. O=C(NCCNC(=O)c1cc(S(=O)(=O)NCCc2ccccc2)c(O)c(O)c1O)c1cc(S(=O)(=O)NCCc2ccccc2)c(O)c(O)c1O
2. CCNC(=S)N(Cc1ccccc1)Cc1ccccc1
3. CC(=O)OC1Oc2cc(C)c(C)cc2-c2oc(=O)c(-c3cc4ccccc4oc3=O)cc21 (centres undefined)
4. CCN(CC)Cc1cc(Nc2ccnc3cc(Cl)ccc23)cc(-c2ccc(Cl)cc2)c1O
5. Fc1ccc(-c2nnc(N3CCOCC3)c3ccccc23)cc1
6. CCCCCCCCCCCCCCC(C(=O)OCC)C(=O)OCC

1: 94.3; 2: 105; 3: 107; 4: 10; 5: 82.9; 6: 92.8

====

Test system: K-562 leukemia
assay explanation: NCI-60 one-dose screen, 48 h (100 = growth as untreated, 0 = no growth, -100 = all killed)
condition set: 10 µM unless noted
About 83,000 compounds went through this panel and 20% of them were active in at least one assay; those are over-represented in the sample as a whole. Activity calls are given as the source filed them. The calls were made as follows: active = growth percent below 10; inactive = the rest.
measurement label: growth

Sample records with growth:
compound: COc1ccccc1NC(=O)OCC12COCN1COC2
measurement label: growth
observed: 104% (inactive)

compound: Cc1ccccc1N1C(c2ccccc2)=NNC12C=CC(=O)c1c(O)cccc12 (stereo unspecified)
measurement label: growth
observed: 63.3% (inactive)

compound: Cc1c(C)c(C)c([N+](=O)[O-])c([N+](=O)[O-])c1C
measurement label: growth
observed: 119% (inactive)

Go through the items and report each one's growth.
1. Clc1ccc(-c2nc(Br)cn3ccnc23)cc1
2. Cc1c(-c2ccc(-c3ccccc3F)cc2)nc2ccc(F)cc2c1C(=O)O
3. c1ccc(C(CC2=NCCCN2)c2ccccc2)cc1

1. 90.2% (inactive)
2. 26.3% (inactive)
3. 107% (inactive)

====

System: A498 renal
assay explanation: NCI-60 one-dose screen, 48 h
condition set: 10 µM unless noted
About 83,000 compounds went through this panel and 20% of them were active in at least one assay; those are over-represented in the sample as a whole. Calls of active or inactive are those of the source. The calls were made as follows: active = growth percent below 10; inactive = the rest.
# valid calls are active, inactive; nothing else

Some solved entries appear below for comparison.
compound: O=C(c1ccccc1)N(CCCCl)C(=O)N(CCCCl)C(=O)c1ccccc1
system: A498 renal
answer label: inactive

compound: N#Cc1nc(-c2ccc(Cl)cc2)cc(-c2ccc(Nc3nc(N4CCCCC4)nc(N4CCCCC4)n3)cc2)c1N
system: A498 renal
answer label: inactive

compound: C#CC[C@@H]1C[C@]2(C)[C@H]3CC[C@@H]4[C@H]5C(C(=C)C)CC[C@]5(C(=O)NCCCCCCCCN)CC[C@@]4(C)[C@]3(C)CC[C@H]2C(C)(C)[C@H]1OC(C)=O (some centres undefined)
system: A498 renal
answer label: inactive

What classification did COc1cc(Cn2c(-c3ccccc3)cc3c2-c2oncc2CC3)cc(OC)c1OC end up with in this test?
active

What classification did CC1=C(C(=O)Nc2ccc(F)cc2)C(c2ccc(C)cc2)C2=C(CC(C)(C)CC2=O)N1 (centres undefined) end up with in this test?
inactive

What classification did CC(CN1CCN(C)CC1)CN1c2ccccc2Sc2ccc(C(F)(F)F)cc21 (centres undefined) end up with in this test?
inactive

What classification did COC(=O)c1cc(Cl)cc([N+](=O)[O-])c1O end up with in this test?
inactive

What classification did CC1(C)C2CCC(O)(C(=O)O)C1C2 (centres undefined) end up with in this test?
inactive

What classification did c1ccc2c(Cc3csc4ccccc34)csc2c1 end up with in this test?
inactive

====

Assignment: determine reported growth for the given molecules.
System: OVCAR-3 ovarian
assay explanation: NCI-60 one-dose screen, 48 h (100 = growth as untreated, 0 = no growth, -100 = all killed)
condition set: 10 µM unless noted
Compounds without any hit were thinned out: in the full panel of roughly 83,000, 20% have a hit.
Give bare numbers, in %.

molecule: COc1cc2c(cc1OCCCOc1cc3c(cc1OC)C(=O)N1CCC[C@H]1C=N3)C=CC(C)(C)O2
observed: 109
--
molecule: Cc1ccc(N=CNN=C(N)N)cc1
observed: 112
--
molecule: COc1ccc(OC)c(Nc2nc(-c3c(C)nc4sccn34)cs2)c1
observed: 94.7
--
molecule: O=C1Nc2ccccc2/C1=C/c1c[nH]c2ccccc12
observed: 93.5
--
molecule: Cc1c(O)c(=O)n(-c2ccccc2)n1C
observed: 108
--
molecule: CC(C)c1ccc(Cn2ccc3c4c(N)nc(NC5CC5)nc4ccc32)cc1
observed: -87.6
--
molecule: O=C(O)C1[S][Sb]([CH](C(=O)O)[CH](C(=O)O)[Sb]2[S]C(C(=O)O)C(C(=O)O)[S]2)[S]C1C(=O)O (stereo unspecified)
observed: 95.7
--
molecule: Cn1c(=O)c2[nH]c(Cc3ccc4c(c3)OCO4)nc2n(C)c1=O
observed: 104

Go through the items and report each one's growth.
1. O=c1[nH]c2cc(Cl)c(Cl)cc2o1
2. COc1ccc(/C(=C\c2cc(OC)c(OC)c(OC)c2)C(=O)N2CCN(c3ccccc3)CC2)cc1O
3. CC(=O)c1c(O)c(C)c(O)c2c1OC1=CC(=O)/C(=C(/C)N)C(=O)C12C (stereo unspecified)

102
111
103
